- tested.system: T1, TCE-16 (anti-CD3 scFv N106A; anti-TROP2 wt)
- T1 construct: scFv on the Fab heavy chain
- measurement.description: competition ELISA, TCE on captured CD3
Where no end group is shown, it is not given here.
reported.metric: IC50 (nM)
One number for each entry, in nM.

Form: binder = VYCGPEFDESVGCA (cysteine pairing not given here; also: biotinylated, site not given here, mask peptide for the CD3 scFv) [Peptide-73] ; IC50 = 50
